Values from the supplement of paper PMC10724198

test system: Saccharomyces cerevisiae; experiment: protein stability index of tFT-peptide fusion (C-terminal peptide) (PSI (0-1 scale)); higher = more stable (slower turnover); conditions: genetic background: das1 deletion; temperature: 37 C;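 note: PSI is a weighted mean of sequencing reads over stability bins, variants kept only with over 10 reads, mCherry proximal and sfGFP distal, peptide attached via GGGS linker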
Listed here are sequences together with their documented protein stability index.
# print the numeric value only

Fill in the blank: the reported protein stability index of `FSSWPFFSFYLS` is ____.
0.743

Data request, read-out protein stability index, for `VIAFFSVLKRYV`
0.712

----------
sequences and their reported protein stability index
test system: Saccharomyces cerevisiae; experiment: protein stability index of tFT-peptide fusion (C-terminal peptide) (PSI (0-1 scale)); higher = more stable (slower turnover); details: genetic background: wild type; temperature: 30 C
Provide a numeric answer; units are not to be included.

The following sequences have reported results that may help.
VSCGGSARRASP	0.704
GGSGAGRRGGGR	0.72
EKGSKTGNKPQT	0.688

Kindly state the measured protein stability index obtained for `PRRLAPPPPPSP` with Saccharomyces cerevisiae.
0.744

Could you share what protein stability index was measured for `VMLIRVSRGIKC` , tested on Saccharomyces cerevisiae?
0.41

Which protein stability index is reported with Saccharomyces cerevisiae for this entry: `VGYGEVSGGGRM` ?
0.732

Field: protein stability index (Saccharomyces cerevisiae). Entry: `RSRTSKGGNFII`
0.677

Lab request: please report protein stability index under test system Saccharomyces cerevisiae for `GKVGGQGGKGVV`
0.765
